molecular target: Melanin-concentrating hormone receptor 1 (Homo sapiens); experiment: Displacement of [125I]MCH from MCHr1 expressed in IMR32 cells; format: cell-based, IMR-32
Sequence (Q99705 whole entry): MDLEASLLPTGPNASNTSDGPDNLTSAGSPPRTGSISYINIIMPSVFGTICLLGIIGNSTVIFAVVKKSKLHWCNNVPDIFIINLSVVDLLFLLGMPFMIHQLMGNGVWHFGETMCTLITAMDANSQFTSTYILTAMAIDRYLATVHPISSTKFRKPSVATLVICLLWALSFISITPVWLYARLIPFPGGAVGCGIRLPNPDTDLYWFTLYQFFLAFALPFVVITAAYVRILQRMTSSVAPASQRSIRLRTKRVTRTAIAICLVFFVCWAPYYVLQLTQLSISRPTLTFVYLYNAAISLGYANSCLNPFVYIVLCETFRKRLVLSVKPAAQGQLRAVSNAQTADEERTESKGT
pIC50: −log10 of the molar value.
Label YES when pIC50 is at or above 6; anything below gets NO.

Worked cases, answers included:
INSERT INTO results (compound, assigned_category) VALUES
  ('COc1ccc2c(=O)cc(C(=O)NC3CCN(Cc4ccc5c(c4)OCO5)C3)oc2c1 (configuration not stated)', 'NO'),
  ('COc1ccc2c(=O)cc(C(=O)NC3CCCN(Cc4ccc5c(c4)OCO5)C3)oc2c1 (configuration not stated)', 'NO'),
  ('CC(=O)Nc1ccc(CN2CCC(NC(=O)c3cc(=O)c4ccc(F)cc4o3)CC2)cc1', 'NO'),
  ('COc1ccc(CN2CCC(NC(=O)c3cc(=O)c4ccc(F)cc4o3)CC2)cc1OC', 'YES');

Proceed to the following item.
Does pIC50 meet or surpass 6 for `O=C(NC1CCN(Cc2ccc3c(c2)OCO3)CC1)c1cc(=O)c2cc(F)cc(F)c2o1` ?
YES

====

Would you mind telling me the reported pIC50 of each entry?
molecular target: Melanin-concentrating hormone receptor 1 (Homo sapiens); experiment: Displacement of [125I]MCH from MCHr1 expressed in IMR32 cells; format: cell-based, IMR-32
Numbers only, as −log10 of the molar value.

Illustrative cases are given below, each with its answer.
INSERT INTO assay_data (smiles_code, measured_number) VALUES
  ('COc1ccc(CN2CCC(NC(=O)c3cc(=O)c4ccc(F)cc4o3)CC2)c(F)c1', 7.28),
  ('CCc1ccc2c(=O)cc(C(=O)NC3CCN(Cc4ccc5c(c4)OCO5)CC3)oc2c1', 7.23),
  ('O=C(NC1CCN(Cc2ccc3c(c2)OCO3)CC1)c1cc(=O)c2c(Cl)c(Cl)ccc2o1', 7.12),
  ('O=C(NC1CCN(Cc2ccccc2F)CC1)c1cc(=O)c2ccc(F)cc2o1', 6.25),
  ('O=C(NC1CCN(Cc2ccc3c(c2)OCO3)CC1)c1cc(=O)c2cc(F)c(Cl)cc2o1', 8.52),
  ('Cc1c(C(=O)NC2CCN(Cc3ccc4c(c3)OCO4)CC2)oc2cc(Cl)ccc2c1=O', 8.70),
  ('O=C(NC1CCN(Cc2ccc3c(c2)OCCO3)CC1)c1cc(=O)c2ccc(F)cc2o1', 7.14),
  ('O=C(NC1CCN(Cc2ccc3c(c2)OCO3)CC1)c1cc(=O)c2c(Cl)cccc2o1', 7.62),
  ('O=C(NC1CCN(Cc2ccc3c(c2)OCO3)CC1)c1cc(=O)c2cc(F)ccc2o1', 7.19),
  ('Cc1ccc2oc(C(=O)NC3CCN(Cc4ccc5c(c4)OCO5)CC3)cc(=O)c2c1', 6.41);

Next compound, pIC50 to be filled in.
What does the record list as pIC50 for `COc1ccc(CN2CCC(NC(=O)c3cc(=O)c4ccc(F)cc4o3)CC2)cc1` ?
7.89

====

molecular target: UniProt:Q99705; assay: Antagonist activity at MCHr1 assessed as inhibition of MCH-mediated calcium ion release in intact IMR32 cells by FLIPR assay; type: functional, cell-based, IMR-32
Assay metric: IC50

INSERT INTO assay_data (smiles_code, assay_metric, result) VALUES
  ('O=C(NC1CCN(Cc2ccc3c(c2)OCO3)CC1)c1cc(=O)c2cc(Br)ccc2o1', 'IC50', '> 6 µM'),
  ('O=C(NC1CCN(Cc2ccc3c(c2)OCO3)CC1)c1cc(=O)c2c(Cl)cccc2o1', 'IC50', '> 10 µM');

Next compound, IC50 to be filled in.
What does the record list as IC50 for `O=C(NC1CCN(Cc2ccc3c(c2)OCO3)CC1)c1cc(=O)c2ccc(O)cc2o1` ?
> 10 µM
